Each recorded value in this set is attributed to DBAASP.

# MIC annotations
Test system: Pseudomonas aeruginosa PAO1
Test: ≥ marks a high value that may be exact or a test limit, other limits are often not marked, values filed in µg/mL are converted to µM
measure: MIC

[[record]]
line_notation = "CC[C@H](C)[C@H](NC(=O)[C@H](CCCN=C(N)N)NC(=O)[C@@H](N)Cc1ccccc1)C(=O)N[C@@H](CCCN=C(N)N)C(=O)N[C@H](C(=O)N[C@@H](CCCN=C(N)N)C(=O)N[C@H](C(N)=O)C(C)C)C(C)C"
measure = "MIC"
observed_value = "32 µM"

[[record]]
line_notation = "CC[C@H](C)[C@H](NC(=O)[C@H](CCCN=C(N)N)NC(=O)[C@H](CC(C)C)NC(=O)[C@H](CCC(N)=O)NC(=O)[C@@H](N)C(C)C)C(=O)N[C@@H](CCCN=C(N)N)C(=O)N[C@H](C(=O)N[C@@H](CS)C(=O)N[C@H](C(=O)N[C@H](C(=O)N[C@@H](CCCN=C(N)N)C(=O)N[C@@H](CCCCN)C(=O)O)[C@@H](C)CC)C(C)C)C(C)C"
measure = "MIC"
observed_value = "10.8 µM"

[[record]]
line_notation = "CC(C)C[C@H](NC(=O)CNC(=O)[C@H](CC(C)C)NC(=O)[C@H](Cc1c[nH]c2ccccc12)NC(=O)[C@H](CC(C)C)NC(=O)CNC(=O)[C@H](CC(C)C)NC(=O)[C@H](CCCCN)NC(=O)[C@H](CCCCN)NC(=O)CN)C(=O)N[C@@H](CCCCN)C(=O)N[C@@H](CCCCN)C(=O)NCC(N)=O"
measure = "MIC"
observed_value = "32 µM"

[[record]]
line_notation = "CC(C)C[C@H](NC(=O)[C@H](CC(C)C)NC(=O)[C@H](CCCCN)NC(=O)CNC(=O)[C@H](CC(C)C)NC(=O)[C@H](C)NC(=O)[C@H](CCCCN)NC(=O)[C@H](CC(C)C)NC(=O)[C@H](C)NC(=O)[C@H](CO)NC(=O)[C@H](CC(C)C)NC(=O)[C@H](CC(C)C)NC(=O)CN)C(N)=O"
measure = "MIC"
observed_value = "> 25 µM"

[[record]]
line_notation = "CC[C@H](C)[C@H](N)C(=O)N1CCC[C@H]1C(=O)N1CCC[C@H]1C(=O)N[C@@H](Cc1ccccc1)C(=O)N[C@H](C(=O)N[C@@H](CCCCN)C(=O)N[C@@H](CCCCN)C(=O)N[C@H](C(=O)N[C@@H](CC(C)C)C(=O)N[C@H](C(=O)N[C@H](C(=O)N[C@H](C(=O)N[C@@H](Cc1ccccc1)C(N)=O)C(C)C)[C@@H](C)O)[C@@H](C)O)C(C)C)[C@@H](C)CC"
measure = "MIC"
observed_value = "> 50 µM"

[[record]]
line_notation = "CC[C@H](C)[C@H](NC(=O)[C@H](CCCCN)NC(=O)[C@H](CC(C)C)NC(=O)[C@H](CCCN=C(N)N)NC(=O)[C@H](CC(C)C)NC(=O)[C@H](CCCCN)NC(=O)[C@H](CCCCN)NC(=O)[C@H](CC(C)C)NC(=O)[C@H](CC(C)C)NC(=O)[C@H](CCCCN)NC(=O)[C@H](CCCCN)NC(=O)[C@H](CC(N)=O)NC(=O)[C@H](CCCN=C(N)N)NC(=O)[C@H](C)NC(=O)[C@H](CCSC)NC(=O)[C@@H]1CCCN1)C(=O)N[C@@H](C)C(=O)N[C@@H](Cc1ccccc1)C(=O)N[C@@H](CCCCN)C(=O)O"
measure = "MIC"
observed_value = "8 µM"

[[record]]
line_notation = "CC[C@H](C)[C@H](NC(=O)CN)C(=O)N[C@@H](Cc1ccccc1)C(=O)N[C@@H](CO)C(=O)N[C@@H](CCCCN)C(=O)N[C@@H](CC(C)C)C(=O)N[C@@H](C)C(=O)NCC(=O)N[C@@H](CCCCN)C(=O)N[C@@H](CCCCN)C(=O)N[C@@H](CC(C)C)C(=O)N[C@@H](CCCCN)C(=O)N[C@@H](CC(N)=O)C(=O)N[C@@H](CC(C)C)C(=O)N[C@@H](CC(C)C)C(=O)N[C@H](C(=O)N[C@@H](CO)C(=O)NCC(N)=O)[C@@H](C)CC"
measure = "MIC"
observed_value = "8 µM"


* * *

System: Micrococcus luteus CCM 144
measure: MIC (µM)

[[record]]
molecule = "CC[C@H](C)[C@H](NC(=O)[C@H](Cc1cnc[nH]1)NC(=O)[C@H](CCCCN)NC(=O)[C@H](CC(C)C)NC(=O)[C@H](CCCCN)NC(=O)[C@H](C)NC(=O)CNC(=O)[C@H](Cc1c[nH]c2ccccc12)NC(=O)[C@H](CC(N)=O)NC(=O)[C@@H](N)CC(C)C)C(=O)N[C@H](C(=O)N[C@@H](CCCCN)C(N)=O)[C@@H](C)CC [LNWGAKLKHIIK]"
operator_symbol = "≥"
observed_value = 38.8

[[record]]
molecule = "CC(C)C[C@H](NC(=O)[C@H](C)NC(=O)CNC(=O)[C@H](Cc1c[nH]c2ccccc12)NC(=O)[C@H](CC(N)=O)NC(=O)[C@@H](N)CC(C)C)C(=O)N[C@@H](CC(C)C)C(=O)N[C@@H](CCCCN)C(=O)N[C@@H](Cc1cnc[nH]1)C(=O)N[C@@H](CC(C)C)C(=O)N[C@@H](CC(C)C)C(=O)N[C@@H](CCCCN)C(N)=O [LNWGALLKHLLK]"
operator_symbol = "="
observed_value = 2.2

[[record]]
molecule = "CC[C@H](C)[C@H](NC(=O)CN)C(=O)N[C@@H](Cc1c[nH]c2ccccc12)C(=O)N[C@@H](CO)C(=O)N[C@@H](CO)C(=O)N[C@@H](CC(C)C)C(=O)N[C@@H](CC(C)C)C(=O)N[C@@H](CCCCN)C(=O)N[C@@H](CCCCN)C(=O)N[C@@H](CC(C)C)C(=O)N[C@@H](CCCCN)C(=O)N[C@@H](CCCCN)C(=O)N[C@H](C(=O)N[C@H](C(=O)N[C@@H](C)C(=O)N[C@@H](CCCCN)C(N)=O)[C@@H](C)CC)[C@@H](C)CC [GIWSSLLKKLKKIIAK]"
operator_symbol = "="
observed_value = 3

[[record]]
molecule = "CC[C@H](C)[C@H](NC(=O)CN)C(=O)N[C@@H](CCSC)C(=O)N[C@@H](CO)C(=O)N[C@@H](CO)C(=O)N[C@@H](CC(C)C)C(=O)N[C@@H](CCSC)C(=O)N[C@@H](CCCCN)C(=O)N[C@@H](CCCCN)C(=O)N[C@@H](CC(C)C)C(=O)N[C@@H](C)C(=O)N[C@@H](CCCCN)C(=O)N[C@H](C(=O)N[C@H](C(=O)N[C@@H](CCCCN)C(=O)N[C@@H](CCCCN)C(N)=O)[C@@H](C)CC)[C@@H](C)CC [GIMSSLMKKLAKIIKK]"
operator_symbol = "="
observed_value = 3

[[record]]
molecule = "CC[C@H](C)[C@H](NC(=O)[C@H](C)NC(=O)CNC(=O)[C@H](Cc1c[nH]c2ccccc12)NC(=O)[C@H](CC(N)=O)NC(=O)[C@@H](N)CC(C)C)C(=O)N[C@@H](CC(C)C)C(=O)N[C@@H](CCCCN)C(=O)N[C@@H](Cc1cnc[nH]1)C(=O)N[C@@H](CCCCN)C(=O)N[C@H](C(=O)N[C@@H](CCCCN)C(N)=O)[C@@H](C)CC [LNWGAILKHKIK]"
operator_symbol = "="
observed_value = 30

[[record]]
molecule = "CC[C@H](C)[C@H](NC(=O)CN)C(=O)N[C@@H](CCSC)C(=O)N[C@@H](CO)C(=O)N[C@@H](CO)C(=O)N[C@@H](CC(C)C)C(=O)N[C@@H](CCSC)C(=O)N[C@@H](CCCCN)C(=O)N[C@@H](CCCCN)C(=O)N[C@@H](CC(C)C)C(=O)N[C@@H](C)C(=O)N[C@@H](C)C(=O)N[C@@H](Cc1cnc[nH]1)C(=O)N[C@H](C(=O)N[C@@H](C)C(=O)N[C@@H](CCCCN)C(N)=O)[C@@H](C)CC [GIMSSLMKKLAAHIAK]"
operator_symbol = "="
observed_value = 3


* * *

This section lists MIC readings for Staphylococcus aureus ATCC 25923.
measure: MIC

[[record]]
compound = "CC[C@H](C)[C@H](N)C(=O)N[C@@H](CC(C)C)C(=O)NCC(=O)N1CCC[C@H]1C(=O)N[C@H](C(=O)N[C@@H](CC(C)C)C(=O)NCC(=O)N[C@@H](CC(C)C)C(=O)N[C@H](C(=O)NCC(=O)N[C@@H](CO)C(=O)N[C@@H](C)C(=O)N[C@@H](CC(C)C)C(=O)NCC(=O)NCC(=O)N[C@@H](CC(C)C)C(=O)N[C@H](C(N)=O)[C@@H](C)CC)C(C)C)C(C)C [ILGPVLGLVGSALGGLI]"
observed_value = "> 64.6 µM"

[[record]]
compound = "CC(C)[C@H](NC(=O)[C@H](CC(=O)O)NC(=O)[C@H](CO)NC(=O)[C@H](CCCCN)NC(=O)CNC(=O)[C@H](CO)NC(=O)[C@H](CO)NC(=O)[C@H](Cc1cnc[nH]1)NC(=O)[C@@H](N)CCC(N)=O)C(=O)N[C@@H](CCCN=C(N)N)C(=O)N[C@@H](CCCN=C(N)N)C(=O)N[C@@H](Cc1c[nH]c2ccccc12)C(N)=O [QHSSGKSDVRRW]"
observed_value = "> 100 µM"

[[record]]
compound = "CC(C)C[C@H](NC(=O)[C@H](CC(C)C)NC(=O)[C@@H](NC(=O)[C@H](CCCCN)NC(=O)[C@H](Cc1ccccc1)NC(=O)[C@H](CCCN=C(N)N)NC(=O)[C@H](CCCCN)NC(=O)[C@H](CC(C)C)NC(=O)[C@H](CC(C)C)NC(=O)CN)[C@@H](C)O)C(N)=O [GLLKRFKTLL]"
observed_value = "128 µM"

[[record]]
compound = "CC[C@H](C)[C@H](NC(=O)[C@H](C)NC(=O)[C@H](CCCCN)NC(=O)CNC(=O)[C@@H](NC(=O)[C@H](Cc1cnc[nH]1)NC(=O)CNC(=O)[C@H](CC(C)C)NC(=O)[C@H](CC(C)C)NC(=O)[C@@H](NC(=O)CNC(=O)[C@@H](NC(=O)[C@H](CC(C)C)NC(=O)CN)C(C)C)[C@@H](C)O)[C@@H](C)CC)C(=O)N[C@@H](CC(C)C)C(=O)NCC(=O)O [GLVGTLLGHIGKAILG]"
observed_value = "125 µM"

[[record]]
compound = "CC[C@H](C)[C@H](NC(=O)[C@H](CCCN=C(N)N)NC(=O)CNC(=O)[C@H](CC(C)C)NC(=O)[C@H](Cc1ccccc1)NC(=O)[C@H](CCCCN)NC(=O)[C@H](CO)NC(=O)[C@H](Cc1ccccc1)NC(=O)[C@H](Cc1c[nH]c2ccccc12)NC(=O)[C@H](CCCN=C(N)N)NC(=O)[C@@H](NC(=O)[C@@H](N)Cc1ccccc1)C(C)C)C(=O)N[C@@H](CC(C)C)C(N)=O [FVRWFSKFLGRIL]"
observed_value = "6 µM"

[[record]]
compound = "NC(=O)[C@H](Cc1c[nH]c2ccccc12)NC(=O)[C@H](CCCN=C(N)N)NC(=O)[C@H](CCCN=C(N)N)NC(=O)[C@H](CCCN=C(N)N)NC(=O)[C@H](Cc1c[nH]c2ccccc12)NC(=O)[C@@H](N)Cc1c[nH]c2ccccc12 [WWRRRW]"
observed_value = "9.57 µM"

